Provide the reported drug sensitivity score of each item.
# Test system: CAF#3 (primary prostate cancer-associated fibroblasts of myCAF-like type)
# Experiment: drug sensitivity score (DSS2, normalised partial AUC of dose-response, 72 h CellTiter-Glo viability) (DSS (dimensionless)); higher = more sensitive (stronger growth inhibition / cytotoxicity); extreme values may be limits of the assay
One number for each entry.

Example entries begin here.
CN1CCN(CCOc2cc(OC3CCOCC3)c3c(Nc4c(Cl)ccc5c4OCO5)ncnc3c2)CC1 [Saracatinib] (tested concentration range 1-10000 nM): 10.1
Nc1cc(F)ccc1NC(=O)/C=C/c1cnn(C/C=C/c2ccccc2)c1 [RGFP966] (tested concentration range 1-10000 nM): 2.6
COc1nc(N)nc2c1ncn2[C@@H]1O[C@H](CO)[C@@H](O)[C@@H]1O [Nelarabine] (tested concentration range 1-10000 nM): 0
CC1(C)NC(=O)N(c2ccc([N+](=O)[O-])c(C(F)(F)F)c2)C1=O [Nilutamide] (tested concentration range 1-10000 nM): 0

Consider now this further molecule.
Ask | Param request: drug sensitivity score | system CAF#3 | item CCOCc1nc2c(N)nc3ccccc3c2n1CC(C)(C)O [Resiquimod] (tested concentration range 1-10000 nM)
Reply | 0
